measurementNotes: Tigecycline plasma PK after IV bolus in anesthetized rats
Assay type: in vivo
details: female, Sprague-Dawley, rat, IV bolus 12 mg/kg, PBS (RA853), 5 min
measuredParameter: concentration at 5 min (µg/mL)
Write down the numeric answer in µg/mL and omit the unit.

Form field concentration at 5 min, entry CN(C)c1cc(NC(=O)CNC(C)(C)C)c(O)c2c1C[C@H]1C[C@H]3[C@H](N(C)C)C(O)=C(C(N)=O)C(=O)[C@@]3(O)C(O)=C1C2=O [Tigecycline] : 50.7

====

measurementNotes: Tigecycline plasma PK after IV bolus in anesthetized rats
Format: in vivo
details: female, Sprague-Dawley, rat, IV bolus 0.64 mg/kg, PBS (RA851)
measuredParameter: AUC(0-t) (ng·h/mL)
Write down the numeric answer in ng·h/mL and omit the unit.

Form field AUC(0-t), entry CN(C)c1cc(NC(=O)CNC(C)(C)C)c(O)c2c1C[C@H]1C[C@H]3[C@H](N(C)C)C(O)=C(C(N)=O)C(=O)[C@@]3(O)C(O)=C1C2=O [Tigecycline] : 970

====

measurementNotes: Tigecycline plasma PK and % F after PO enteric-coated capsule in dogs
Type: in vivo, Beagle dogs
details: female, beagle, dog, plasma, po, 45 mg, Tigecycline Plasma Concentration, Time (min) 5.0; PO 45 mg enteric-coated capsule with 500 mg CA and 100 mg LLC, SC430; mean
measuredParameter: concentration at 5 min (ng/mL)
Write down the numeric answer in ng/mL and omit the unit.

Form field concentration at 5 min, entry CN(C)c1cc(NC(=O)CNC(C)(C)C)c(O)c2c1C[C@H]1C[C@H]3[C@H](N(C)C)C(O)=C(C(N)=O)C(=O)[C@@]3(O)C(O)=C1C2=O : 50.6

====

measurementNotes: Tigecycline plasma PK and % F after PO enteric-coated capsule in dogs
Format: in vivo, Beagle dogs
details: female, beagle, dog, plasma, po, 30 mg, Tigecycline Plasma Concentration, Time (min) 3.7; PO 30 mg enteric-coated capsule with 500 mg CA and 100 mg LLC, SC430; mean
measuredParameter: concentration at […]
Numeric answer plus unit only.

Form field concentration at […], entry CN(C)c1cc(NC(=O)CNC(C)(C)C)c(O)c2c1C[C@H]1C[C@H]3[C@H](N(C)C)C(O)=C(C(N)=O)C(=O)[C@@]3(O)C(O)=C1C2=O : 40.6 ng/mL

====

measurementNotes: Tigecycline plasma PK after IV bolus in dogs
Format: in vivo, Beagle dogs
details: female, beagle, dog, plasma, intravenous, 1 mg, Tigecycline Plasma Concentration, 120 min; 1 mg IV in PBS (0.08 mg/kg), SC427; mean
measuredParameter: concentration at 120 min (ng/mL)
Write down the numeric answer in ng/mL and omit the unit.

Form field concentration at 120 min, entry CN(C)c1cc(NC(=O)CNC(C)(C)C)c(O)c2c1C[C@H]1C[C@H]3[C@H](N(C)C)C(O)=C(C(N)=O)C(=O)[C@@]3(O)C(O)=C1C2=O : 11.1

====

measurementNotes: Tigecycline plasma PK and % F after PO enteric-coated capsule in dogs
Assay type: in vivo, Beagle dogs
details: female, beagle, dog, plasma, po, 30 mg, Tigecycline Plasma Concentration, 4.0 hr; PO 30 mg unformulated enteric-coated capsule, SC430; individual dogs
measuredParameter: concentration at 4 hr (ng/mL)
Write down the numeric answer in ng/mL and omit the unit.

Form field concentration at 4 hr, entry CN(C)c1cc(NC(=O)CNC(C)(C)C)c(O)c2c1C[C@H]1C[C@H]3[C@H](N(C)C)C(O)=C(C(N)=O)C(=O)[C@@]3(O)C(O)=C1C2=O : 0

====

measurementNotes: Tigecycline plasma PK and % F after intraduodenal (ID) injection in anesthetized rats
Assay type: in vivo, Sprague-Dawley Rats
details: female, Sprague-Dawley, rat, plasma, 4.6 mg/kg, RA861, ID, 400 mM CA/26 mM LLC, mean dose 4.6 mg/kg; read-out: Cmax, mean
measuredParameter: Cmax

Form field Cmax, entry CN(C)c1cc(NC(=O)CNC(C)(C)C)c(O)c2c1C[C@H]1C[C@H]3[C@H](N(C)C)C(O)=C(C(N)=O)C(=O)[C@@]3(O)C(O)=C1C2=O [Tigecycline] : 30.6 ng/mL

====

measurementNotes: Tigecycline plasma PK and % F after intraduodenal (ID) injection in anesthetized rats
Type: in vivo, Sprague-Dawley Rats
details: female, Sprague-Dawley, rat, plasma, other: intraduodenal bolus injection, 9 mg/kg, pH 3.5, ID, 400 mM CA (pH 3.5), 26 mM LLC, 9.0 mg/kg (RA853), parent Tigecycline peak only; 120 min
measuredParameter: concentration at 120 min (ng/mL)
Write down the numeric answer in ng/mL and omit the unit.

Form field concentration at 120 min, entry CN(C)c1cc(NC(=O)CNC(C)(C)C)c(O)c2c1C[C@H]1C[C@H]3[C@H](N(C)C)C(O)=C(C(N)=O)C(=O)[C@@]3(O)C(O)=C1C2=O : 683

====

measurementNotes: Tigecycline plasma PK after IV bolus in dogs
Type: in vivo, Beagle dogs
details: female, beagle, dog, plasma, iv, 0.08 mg/kg, IV, Study 1 (SC427), 1 mg (0.08 mg/kg); mean (% CV); read-out: Cmax
measuredParameter: Cmax
Numeric answer plus unit only.

Form field Cmax, entry CN(C)c1cc(NC(=O)CNC(C)(C)C)c(O)c2c1C[C@H]1C[C@H]3[C@H](N(C)C)C(O)=C(C(N)=O)C(=O)[C@@]3(O)C(O)=C1C2=O : 79.1 ng/mL

====

measurementNotes: Tigecycline plasma PK and % F after intraduodenal (ID) injection in anesthetized rats
Type: in vivo, Sprague-Dawley Rats
details: female, Sprague-Dawley, rat, plasma, other: intraduodenal bolus injection, 9 mg/kg, pH 3.5, ID, 100 mM CA (pH 3.5), 26 mM LLC, 9.0 mg/kg (RA853); 60 min
measuredParameter: concentration at 60 min (ng/mL)
Write down the numeric answer in ng/mL and omit the unit.

Form field concentration at 60 min, entry CN(C)c1cc(NC(=O)CNC(C)(C)C)c(O)c2c1C[C@H]1C[C@H]3[C@H](N(C)C)C(O)=C(C(N)=O)C(=O)[C@@]3(O)C(O)=C1C2=O : 608

====

measurementNotes: Tigecycline plasma PK and % F after PO enteric-coated capsule in dogs
Assay type: in vivo, Beagle dogs
details: female, beagle, dog, plasma, po, 30 mg; read-out: Cmax
Procedure: Adult beagle dogs weighing approximately 9 to 15 kg were used in the study. […] Room temperature was set to be maintained between approximately 20±5° C. Relative humidity was monitored but not controlled. […] The unknown concentration in dog plasma samples was determined by interpolation of the peak area ratios of analyte:internal standard versus the ratio of their nominal concentrations into the regression line obtained from calibration standards spiked in pooled dog plasma. […]
measuredParameter: Cmax (ng/mL)
Write down the numeric answer in ng/mL and omit the unit.

Form field Cmax, entry CN(C)c1cc(NC(=O)CNC(C)(C)C)c(O)c2c1C[C@H]1C[C@H]3[C@H](N(C)C)C(O)=C(C(N)=O)C(=O)[C@@]3(O)C(O)=C1C2=O : 121

====

measurementNotes: Tigecycline plasma PK and % F after PO enteric-coated capsule in dogs
Type: in vivo, Beagle dogs
details: female, beagle, dog, plasma, po, 45 mg, Tigecycline Plasma Concentration, Time (min) 0.0; PO 45 mg enteric-coated capsule with 500 mg CA and 100 mg LLC, SC430; mean
measuredParameter: concentration at 0 min
Numeric answer plus unit only.

Form field concentration at 0 min, entry CN(C)c1cc(NC(=O)CNC(C)(C)C)c(O)c2c1C[C@H]1C[C@H]3[C@H](N(C)C)C(O)=C(C(N)=O)C(=O)[C@@]3(O)C(O)=C1C2=O [Tigecycline] : 0 µg/mL

====

measurementNotes: Tigecycline plasma PK and % F after PO enteric-coated capsule in dogs
Assay type: in vivo, Beagle dogs
details: female, beagle, dog, plasma, po, 15 mg, Tigecycline Plasma Concentration, 60 min; PO 15 mg unformulated enteric-coated capsule, SC424; mean
measuredParameter: concentration at 60 min

Form field concentration at 60 min, entry CN(C)c1cc(NC(=O)CNC(C)(C)C)c(O)c2c1C[C@H]1C[C@H]3[C@H](N(C)C)C(O)=C(C(N)=O)C(=O)[C@@]3(O)C(O)=C1C2=O [Tigecycline] : 0 ng/mL

====

measurementNotes: Tigecycline plasma PK and % F after PO enteric-coated capsule in dogs
Format: in vivo, Beagle dogs
details: female, beagle, dog, plasma, po, 15 mg, Study 1 (SC424); 15 mg Formulated enteric coated capsule (500 mg citric acid, 100 mg LLC), oral, dogs, N=8; mean (% CV); read-out: Tmax (converted)
measuredParameter: Tmax
Numeric answer plus unit only.

Form field Tmax, entry CN(C)c1cc(NC(=O)CNC(C)(C)C)c(O)c2c1C[C@H]1C[C@H]3[C@H](N(C)C)C(O)=C(C(N)=O)C(=O)[C@@]3(O)C(O)=C1C2=O : 1.85 h

====

measurementNotes: Tigecycline plasma PK and % F after PO enteric-coated capsule in dogs
Type: in vivo, Beagle dogs
details: female, beagle, dog, plasma, po, 15 mg, Tigecycline Plasma Concentration, 240 min; PO 15 mg unformulated enteric-coated capsule, SC424; mean
measuredParameter: concentration at 240 min (ng/mL)
Write down the numeric answer in ng/mL and omit the unit.

Form field concentration at 240 min, entry CN(C)c1cc(NC(=O)CNC(C)(C)C)c(O)c2c1C[C@H]1C[C@H]3[C@H](N(C)C)C(O)=C(C(N)=O)C(=O)[C@@]3(O)C(O)=C1C2=O [Tigecycline] : 0
